Target entity: human plasma kallikrein (Homo sapiens)
Assay remarks: Kallikrein inhibition assay utilizing a quenched AMC peptide substrate (FLINT)
Run parameters: 11-point, 3-fold serial dilution, top 1 μM; 30 min preincubation; 2 nM kallikrein; 50 μM Z-Gly-Pro-Arg-AMC; kinetic reads over 30 min
pIC50: −log10 of the molar value.
Each entry below lists one item and its recorded pIC50 value.
Measured attribute: pIC50

INSERT INTO assay_data (molecule, measured_attribute, val) VALUES
  ('O=C1Cc2cc(NC(=O)[C@@H]3CC[C@@H]4CC(c5c(-n6cnnn6)ccc(Cl)c5F)=CC(=O)N43)ccc2N1 [ID No. 12]', 'pIC50', 7.14),
  ('C[C@@H](O)c1cnc2cc(NC(=O)[C@@H]3CCC4CC(c5c(-n6cnnn6)ccc(Cl)c5F)=CC(=O)N43)ccc2n1 (single isomer, unassigned) [ID No. 2]', 'pIC50', 7.95),
  ('Nc1noc2cc(NC(=O)[C@@H]3CCC4CC(c5c(-n6cnnn6)ccc(Cl)c5F)=CC(=O)N43)ccc12 (single isomer, unassigned) [ID No. 61]', 'pIC50', 7.28),
  ('O=C(Nc1ccc(-c2nnn[nH]2)cc1)[C@@H]1CCC2CC(c3c(-n4cnnn4)ccc(Cl)c3F)=CC(=O)N21 (mixture of isomers) [ID No. 72]', 'pIC50', 7.69),
  ('O=C(O)c1ccc(NC(=O)[C@@H]2CC[C@@H]3CC(c4c(-n5cnnn5)ccc(Cl)c4F)=CC(=O)N32)cc1F (single isomer, unassigned) [ID No. 52]', 'pIC50', 7.15),
  ('CO[C@@H]1C[C@@H](C(=O)Nc2ccc3ncccc3c2)N2C(=O)C=C(c3c(-n4cnnn4)ccc(Cl)c3F)CC12 (mixture of isomers) [ID No. 45]', 'pIC50', 7.85);

====

Below are compounds with their IC50 as measured on Factor XIa (Homo sapiens).
Sequence (P03951 388-625 limits assumed): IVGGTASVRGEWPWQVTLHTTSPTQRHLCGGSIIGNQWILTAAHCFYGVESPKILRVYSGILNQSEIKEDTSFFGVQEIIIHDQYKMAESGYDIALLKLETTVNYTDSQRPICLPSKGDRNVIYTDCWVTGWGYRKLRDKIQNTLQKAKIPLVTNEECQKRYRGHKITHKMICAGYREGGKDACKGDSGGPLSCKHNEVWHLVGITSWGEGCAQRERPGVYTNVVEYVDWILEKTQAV
Sequence (P03951 19-387 partner limits assumed): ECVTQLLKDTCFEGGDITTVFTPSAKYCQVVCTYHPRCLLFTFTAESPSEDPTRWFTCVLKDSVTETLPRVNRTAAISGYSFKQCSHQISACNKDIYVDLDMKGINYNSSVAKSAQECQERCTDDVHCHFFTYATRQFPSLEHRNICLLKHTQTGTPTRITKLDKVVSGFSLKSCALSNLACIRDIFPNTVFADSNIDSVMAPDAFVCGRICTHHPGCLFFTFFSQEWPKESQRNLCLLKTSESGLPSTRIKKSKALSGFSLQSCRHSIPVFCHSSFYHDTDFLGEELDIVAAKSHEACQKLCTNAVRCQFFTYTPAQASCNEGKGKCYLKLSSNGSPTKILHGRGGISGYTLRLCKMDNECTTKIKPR
Measured attribute: IC50 (µM)

INSERT INTO measurements (compound, measured_attribute, bound_operator, val) VALUES
  ('O=C1CCc2cc(NC(=O)[C@@H]3CC[C@@H]4CC(c5c(-n6cnnn6)ccc(Cl)c5F)=CC(=O)N43)ccc2N1', 'IC50', '=', 0.0129),
  ('O=C(Nc1ccc2ncsc2c1)[C@@H]1CCC2CC(c3c(-n4cnnn4)ccc(Cl)c3F)=CC(=O)N21 (mixture of isomers)', 'IC50', '=', 0.0066),
  ('COCCNC(=O)c1ccc(NC(=O)[C@@H]2CC[C@@H]3CC(c4c(-n5cnnn5)ccc(Cl)c4F)=CC(=O)N32)cc1F (single isomer, unassigned)', 'IC50', '=', 0.0155),
  ('CN(O)C(=O)c1ccc(NC(=O)[C@@H]2CCC3CC(c4c(-n5cnnn5)ccc(Cl)c4F)=CC(=O)N32)cc1 (mixture of isomers)', 'IC50', '=', 0.0363),
  ('CN(C)c1ccnc2ccc(NC(=O)C3CCC4CC(c5c(-n6cc(C(F)(F)F)nn6)ccc(Cl)c5F)=CC(=O)N43)cc12 (stereo not drawn)', 'IC50', '>', 0.05),
  ('CC1(C)C(=O)Nc2ccc(NC(=O)[C@@H]3CC[C@@H]4CC(c5c(-n6cnnn6)ccc(Cl)c5F)=CC(=O)N43)cc21', 'IC50', '=', 0.065);

====

Target entity: human plasma kallikrein (Homo sapiens, UniProt P03952)
Sequence (P03952 391-638 limits assumed): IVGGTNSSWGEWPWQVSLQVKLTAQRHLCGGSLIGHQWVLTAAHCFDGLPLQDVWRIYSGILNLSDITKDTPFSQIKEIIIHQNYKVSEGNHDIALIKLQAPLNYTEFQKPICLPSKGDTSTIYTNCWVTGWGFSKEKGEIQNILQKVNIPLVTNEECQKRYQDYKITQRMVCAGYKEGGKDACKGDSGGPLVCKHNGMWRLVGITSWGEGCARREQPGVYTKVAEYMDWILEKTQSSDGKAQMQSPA
Sequence (P03952 20-390 partner limits assumed): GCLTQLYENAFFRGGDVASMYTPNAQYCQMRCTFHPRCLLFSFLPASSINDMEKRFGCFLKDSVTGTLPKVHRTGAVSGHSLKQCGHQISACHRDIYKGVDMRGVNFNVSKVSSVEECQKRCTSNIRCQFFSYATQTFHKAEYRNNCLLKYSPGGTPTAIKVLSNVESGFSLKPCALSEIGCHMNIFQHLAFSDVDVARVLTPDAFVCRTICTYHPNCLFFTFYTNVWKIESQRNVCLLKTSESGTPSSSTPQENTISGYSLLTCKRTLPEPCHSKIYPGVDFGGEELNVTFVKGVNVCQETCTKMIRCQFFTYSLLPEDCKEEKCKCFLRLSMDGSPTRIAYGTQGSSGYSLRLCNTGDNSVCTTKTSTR
Assay remarks: Kallikrein inhibition assay utilizing a quenched AMC peptide substrate (FLINT)
Run parameters: 11-point, 3-fold serial dilution, top 1 μM; 30 min preincubation; 2 nM kallikrein; 50 μM Z-Gly-Pro-Arg-AMC; kinetic reads over 30 min
Text: Biological Example 2: Kallikrein Inhibition Assay Utilizing a Quenched AMC Peptide Substrate A fluorescence intensity (FLINT) based assay was used to monitor inhibition of human plasma kallikrein. The peptide substrate, Z-Gly-Pro-Arg-AMC (Purchased from Bachem; Catalog #I-1150) was chosen based on its relatively low KM for kallikrein which enables running the assay at lower substrate concentrations to control background fluorescence. […]
Measured attribute: IC50 (nM)

INSERT INTO assay_data (molecule, val) VALUES
  ('O=C(O)c1ccc(NC(=O)[C@@H]2CCC3CC(c4c(-n5cnnn5)ccc(Cl)c4F)=CC(=O)N32)cc1F (single isomer, unassigned) [ID No. 51]', 149),
  ('O=C(O)c1c(F)cc(NC(=O)[C@@H]2CCC3CC(c4c(-n5cnnn5)ccc(Cl)c4F)=CC(=O)N32)cc1F (mixture of isomers) [ID No. 37]', 282),
  ('Cn1cnc(-c2ccc(NC(=O)[C@@H]3CCC4CC(c5c(-n6cnnn6)ccc(Cl)c5F)=CC(=O)N43)cc2)n1 (mixture of isomers) [ID No. 77]', 63.5),
  ('CCn1cnc2ccc(NC(=O)[C@@H]3CC[C@@H]4CC(c5c(-n6cnnn6)ccc(Cl)c5F)=CC(=O)N43)cc2c1=O [ID No. 14]', 59.6),
  ('Cc1nc(-c2ccc(NC(=O)[C@@H]3CC[C@@H]4CC(c5c(-n6cnnn6)ccc(Cl)c5F)=CC(=O)N43)cc2)no1 (single isomer, unassigned) [ID No. 50]', 57),
  ('O=C(Nc1ccc(-c2nc[nH]n2)cc1)[C@@H]1CCC2CC(c3c(-n4cnnn4)ccc(Cl)c3F)=CC(=O)N21 (mixture of isomers) [ID No. 69]', 52.3),
  ('O=C1CCc2cc(NC(=O)[C@@H]3CC[C@@H]4CC(c5c(-n6cnnn6)ccc(Cl)c5F)=CC(=O)N43)ccc2N1 [ID No. 13]', 68.4),
  ('O=C(Nc1ccc2c(c1)C(F)(F)C(=O)N2)[C@@H]1CC[C@@H]2CC(c3c(-n4cnnn4)ccc(Cl)c3F)=CC(=O)N21 [ID No. 15]', 55.7),
  ('O=C(O)c1ccc(NC(=O)[C@@H]2CCC3CC(c4c(-n5cnnn5)ccc(Cl)c4F)=CC(=O)N32)cc1F (mixture of isomers) [ID No. 58]', 107),
  ('CC1C[C@@H](C(=O)Nc2ccc3nn(C)cc3c2)N2C(=O)C=C(c3c(-n4cnnn4)ccc(Cl)c3F)CC12 (mixture of isomers) [ID No. 83]', 27),
  ('O=C(Nc1ccc(-c2n[nH]c(=O)o2)cc1)[C@@H]1CCC2CC(c3c(-n4cnnn4)ccc(Cl)c3F)=CC(=O)N21 (mixture of isomers) [ID No. 75]', 11.2),
  ('NC(=O)c1ccc(NC(=O)[C@@H]2CCC3CC(c4c(-n5cnnn5)ccc(Cl)c4F)=CC(=O)N32)cc1 (mixture of isomers) [ID No. 41]', 79.7),
  ('[2H]c1nnnn1-c1ccc(Cl)c(F)c1C1=CC(=O)N2C(CCC2C(=O)Nc2ccc3c(c2)C2(CC2)C(=O)N3)C1 (stereo not shown) [compound 96]', 128);

====

Target entity: human plasma kallikrein (Homo sapiens, UniProt P03952)
Assay remarks: Kallikrein inhibition assay utilizing a quenched AMC peptide substrate (FLINT)
Run parameters: 11-point, 3-fold serial dilution, top 1 μM; 30 min preincubation; 2 nM kallikrein; 50 μM Z-Gly-Pro-Arg-AMC; kinetic reads over 30 min
Text: Biological Example 2: Kallikrein Inhibition Assay Utilizing a Quenched AMC Peptide Substrate A fluorescence intensity (FLINT) based assay was used to monitor inhibition of human plasma kallikrein. The peptide substrate, Z-Gly-Pro-Arg-AMC (Purchased from Bachem; Catalog #I-1150) was chosen based on its relatively low KM for kallikrein which enables running the assay at lower substrate concentrations to control background fluorescence. […]
Measured attribute: log10 of IC50 (log10 of the value in nM)

INSERT INTO results (molecule, measured_attribute, val) VALUES
  ('C[C@H]1C[C@@H](C(=O)Nc2ccc3nccnc3c2)N2C(=O)C=C(c3c(-n4cnnn4)ccc(Cl)c3F)C[C@H]12 (single isomer, unassigned) [ID No. 80]', 'log10 of IC50', 1.77),
  ('O=C(Nc1ccc2nc[nH]c2c1)[C@@H]1CCC2CC(c3c(-n4cnnn4)ccc(Cl)c3F)=CC(=O)N21 (mixture of isomers) [ID No. 53]', 'log10 of IC50', 1.75),
  ('Cc1nc(-c2ccc(NC(=O)[C@@H]3CC[C@@H]4CC(c5c(-n6cnnn6)ccc(Cl)c5F)=CC(=O)N43)cc2)co1 [ID No. 20]', 'log10 of IC50', 2.05),
  ('O=C(Nc1ccc(-n2nccn2)cc1)[C@@H]1CCC2CC(c3c(-n4cnnn4)ccc(Cl)c3F)=CC(=O)N21 (mixture of isomers) [ID No. 49]', 'log10 of IC50', 1.73),
  ('CC(O)c1nc2cc(NC(=O)[C@@H]3CCC4CC(c5c(-n6cnnn6)ccc(Cl)c5F)=CC(=O)N43)ccc2s1 (mixture of isomers) [compound 92]', 'log10 of IC50', 1.70),
  ('CC1(C)C[C@@H](C(=O)Nc2ccc3nccnc3c2)N2C(=O)C=C(c3c(-n4cnnn4)ccc(Cl)c3F)CC21 (single isomer, unassigned) [ID No. 59]', 'log10 of IC50', 1.59),
  ('O=C(Nc1ccc(-c2nc(=O)o[nH]2)c(F)c1)[C@@H]1CCC2CC(c3c(-n4cnnn4)ccc(Cl)c3F)=CC(=O)N21 (single isomer, unassigned) [ID No. 35]', 'log10 of IC50', 0.81),
  ('O=C(Nc1ccc2nn(C(F)F)cc2c1)[C@@H]1CC[C@@H]2CC(c3c(-n4cnnn4)ccc(Cl)c3F)=CC(=O)N21 (single isomer, unassigned) [ID No. 23]', 'log10 of IC50', 1.49),
  ('O=C(Nc1ccc2[nH]c(=O)cc(O)c2c1)[C@@H]1CCC2CC(c3c(-n4cnnn4)ccc(Cl)c3F)=CC(=O)N21 (mixture of isomers) [ID No. 64]', 'log10 of IC50', 0.98),
  ('O=C(Nc1ccc(-c2nnn[nH]2)cc1)[C@@H]1CC[C@H]2CC(c3c(-n4cnnn4)ccc(Cl)c3F)=CC(=O)N21 (single isomer, unassigned) [ID No. 65]', 'log10 of IC50', 1.56),
  ('CC(O)c1nc2cc(NC(=O)[C@@H]3CCC4CC(c5c(-n6cnnn6)ccc(Cl)c5F)=CC(=O)N43)ccc2s1 (mixture of isomers) [compound 91]', 'log10 of IC50', 2.06),
  ('O=C(Nc1ccc2ncoc2c1)[C@@H]1CCC2CC(c3c(-n4cnnn4)ccc(Cl)c3F)=CC(=O)N21 (mixture of isomers) [ID No. 54]', 'log10 of IC50', 1.77),
  ('CN(O)C(=O)c1cc2cc(NC(=O)[C@@H]3CCC4CC(c5c(-n6cnnn6)ccc(Cl)c5F)=CC(=O)N43)ccc2[nH]1 (mixture of isomers) [ID No. 31]', 'log10 of IC50', 1.37),
  ('CCOCCOc1ccc2cc(NC(=O)[C@@H]3CCC4CC(c5c(-n6cc(C(F)(F)F)nn6)ccc(Cl)c5F)=CC(=O)N43)ccc2n1 (mixture of isomers) [compound 107]', 'log10 of IC50', 2.28),
  ('CN(C)c1ccnc2ccc(NC(=O)C3CCC4CC(c5c(-n6cnnn6)ccc(Cl)c5F)=CC(=O)N43)cc12 (stereo not drawn) [compound 87]', 'log10 of IC50', 1.81),
  ('Cn1nc2ccc(NC(=O)[C@@H]3CC[C@@H]4CC(c5c(-n6cnnn6)ccc(Cl)c5F)=CC(=O)N43)cc2n1 [ID No. 16]', 'log10 of IC50', 1.66),
  ('Nc1noc2cc(NC(=O)[C@@H]3CCC4CC(c5c(-n6cnnn6)ccc(Cl)c5F)=CC(=O)N43)ccc12 (single isomer, unassigned) [ID No. 60]', 'log10 of IC50', 1.47),
  ('COCCn1ncc2cc(NC(=O)[C@@H]3CCC4CC(c5c(-n6cnnn6)ccc(Cl)c5F)=CC(=O)N43)ccc21 (mixture of isomers) [ID No. 4]', 'log10 of IC50', 2.03),
  ('O=C(Nc1ccc(-c2nnn[nH]2)cc1)[C@@H]1CCC2CC(c3c(-n4cnnn4)ccc(Cl)c3F)=CC(=O)N21 (single isomer, unassigned) [ID No. 66]', 'log10 of IC50', 1.28),
  ('NC(=O)c1ccc(NC(=O)[C@@H]2CC[C@@H]3CC(c4c(-n5cc(C(F)(F)F)nn5)ccc(Cl)c4F)=CC(=O)N32)cc1F [ID No. 24]', 'log10 of IC50', 1.88),
  ('O=C(Nc1ccc(-c2nc(=O)o[nH]2)cc1)[C@@H]1CCC2CC(c3c(-n4cnnn4)ccc(Cl)c3F)=CC(=O)N21 (mixture of isomers) [ID No. 76]', 'log10 of IC50', 1.35),
  ('CN(C)c1ccnc2ccc(NC(=O)C3CCC4CC(c5c(-n6cc(C(F)(F)F)nn6)ccc(Cl)c5F)=CC(=O)N43)cc12 (stereo not drawn) [compound 89]', 'log10 of IC50', 2.80),
  ('Cn1nnnc1-c1ccc(NC(=O)[C@@H]2CCC3CC(c4c(-n5cnnn5)ccc(Cl)c4F)=CC(=O)N32)cc1 (mixture of isomers) [ID No. 70]', 'log10 of IC50', 2.64),
  ('CO[C@H]1C[C@@H](C(=O)Nc2ccc3nccnc3c2)N2C(=O)C=C(c3c(-n4cnnn4)ccc(Cl)c3F)CC12 (mixture of isomers) [ID No. 28]', 'log10 of IC50', 2.63);
